# Measurement Target: cytochrome bd (Mycobacterium tuberculosis)
# Construct: native complex in inverted membrane vesicles of strain mc^2 6020
# Sequence (O06139 entry or part of it): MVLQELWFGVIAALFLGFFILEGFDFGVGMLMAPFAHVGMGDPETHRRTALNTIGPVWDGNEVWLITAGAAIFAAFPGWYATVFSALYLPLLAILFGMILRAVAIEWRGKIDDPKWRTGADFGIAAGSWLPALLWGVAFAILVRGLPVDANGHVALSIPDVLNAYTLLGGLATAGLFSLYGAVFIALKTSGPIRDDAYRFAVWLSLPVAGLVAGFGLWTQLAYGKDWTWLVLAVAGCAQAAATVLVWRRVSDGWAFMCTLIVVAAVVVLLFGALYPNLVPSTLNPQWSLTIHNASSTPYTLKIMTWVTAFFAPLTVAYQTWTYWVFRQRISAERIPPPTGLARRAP
# Sequence (L7N662 entry or part of it): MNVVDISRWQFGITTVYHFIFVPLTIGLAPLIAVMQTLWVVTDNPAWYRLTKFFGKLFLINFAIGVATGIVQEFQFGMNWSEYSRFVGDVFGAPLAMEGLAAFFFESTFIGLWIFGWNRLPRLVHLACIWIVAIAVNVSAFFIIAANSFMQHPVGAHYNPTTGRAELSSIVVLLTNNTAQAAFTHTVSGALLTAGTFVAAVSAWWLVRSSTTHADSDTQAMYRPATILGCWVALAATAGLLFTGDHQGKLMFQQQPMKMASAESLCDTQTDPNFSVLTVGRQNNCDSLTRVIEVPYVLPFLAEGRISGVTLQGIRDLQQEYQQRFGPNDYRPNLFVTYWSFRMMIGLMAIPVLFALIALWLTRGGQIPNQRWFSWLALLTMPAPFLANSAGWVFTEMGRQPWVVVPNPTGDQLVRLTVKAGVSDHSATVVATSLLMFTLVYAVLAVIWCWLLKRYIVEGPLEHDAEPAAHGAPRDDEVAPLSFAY
# Run Description: NADH-driven oxygen consumption of inverted membrane vesicles (Clark electrode); maximal inhibition […]
Endpoint Name: IC50

(Q) # input molecule: `CC(C)=CCC/C(C)=C/CC/C(C)=C/Cc1c(C)[nH]c2ccccc2c1=O` ; wanted: its IC50
(A) ~0.4 µM

Sourced from paper PMC5805707
